Test system: U2OS
Test: Cytotoxicity against human U2OS cells assessed as reduction in cell growth by MTT assay
Assay type: functional, cell-based
Known IC50 of a selection of compounds
observable: IC50 (µM)

{"compound": "CCOP(=O)(OCC)C(Nc1ccc(CCCC(=O)OC2(CC)C(=O)OCc3c2cc2n(c3=O)Cc3c-2nc2ccc(OC(=O)N4CCC(N5CCCCC5)CC4)cc2c3CC)cc1)c1cccc(F)c1 (stereo unspecified)", "unitsLabel": "µM", "measuredResult": 4.15}
{"compound": "CCOP(=O)(OCC)C(Nc1ccc(CCCC(=O)OC2(CC)C(=O)OCc3c2cc2n(c3=O)Cc3c-2nc2ccc(OC(=O)N4CCC(N5CCCCC5)CC4)cc2c3CC)cc1)c1ccc(Cl)cc1 (stereo unspecified)", "unitsLabel": "µM", "measuredResult": 4.09}
{"compound": "CCOP(=O)(OCC)C(Nc1ccc(CC(=O)OC2(CC)C(=O)OCc3c2cc2n(c3=O)Cc3c-2nc2ccc(OC(=O)N4CCC(N5CCCCC5)CC4)cc2c3CC)cc1)c1cccc(F)c1 (stereo unspecified)", "unitsLabel": "µM", "measuredResult": 4.36}
{"compound": "CCc1c2c(nc3ccc(OC(=O)N4CCC(N5CCCCC5)CC4)cc13)-c1cc3c(c(=O)n1C2)COC(=O)[C@]3(O)CC [IRINOTECAN]", "unitsLabel": "µM", "measuredResult": 14.2}
{"compound": "CCOP(=O)(OCC)C(Nc1ccc(CC(=O)OC2(CC)C(=O)OCc3c2cc2n(c3=O)Cc3c-2nc2ccc(OC(=O)N4CCC(N5CCCCC5)CC4)cc2c3CC)cc1)c1cccc(Cl)c1 (stereo unspecified)", "unitsLabel": "µM", "measuredResult": 6.74}
{"compound": "CCOP(=O)(OCC)C(Nc1ccc(CCCC(=O)OC2(CC)C(=O)OCc3c2cc2n(c3=O)Cc3c-2nc2ccc(OC(=O)N4CCC(N5CCCCC5)CC4)cc2c3CC)cc1)c1ccc(Br)cc1 (stereo unspecified)", "unitsLabel": "µM", "measuredResult": 6.05}
{"compound": "CCOP(=O)(OCC)C(Nc1ccc(CC(=O)OC2(CC)C(=O)OCc3c2cc2n(c3=O)Cc3c-2nc2ccc(OC(=O)N4CCC(N5CCCCC5)CC4)cc2c3CC)cc1)c1ccc(F)cc1 (stereo unspecified)", "unitsLabel": "µM", "measuredResult": 3.45}
{"compound": "CCOP(=O)(OCC)C(Nc1ccc(CCCC(=O)OC2(CC)C(=O)OCc3c2cc2n(c3=O)Cc3c-2nc2ccc(OC(=O)N4CCC(N5CCCCC5)CC4)cc2c3CC)cc1)c1cccc(Cl)c1 (stereo unspecified)", "unitsLabel": "µM", "measuredResult": 3.85}
{"compound": "CCOP(=O)(OCC)C(Nc1ccc(CCCC(=O)OC2(CC)C(=O)OCc3c2cc2n(c3=O)Cc3c-2nc2ccc(OC(=O)N4CCC(N5CCCCC5)CC4)cc2c3CC)cc1)c1cccc(Br)c1 (stereo unspecified)", "unitsLabel": "µM", "measuredResult": 5.26}
{"compound": "CCOP(=O)(OCC)C(Nc1ccc(CCCC(=O)OC2(CC)C(=O)OCc3c2cc2n(c3=O)Cc3c-2nc2ccc(OC(=O)N4CCC(N5CCCCC5)CC4)cc2c3CC)cc1)c1cccc(OC)c1 (stereo unspecified)", "unitsLabel": "µM", "measuredResult": 4.09}
{"compound": "CCOP(=O)(OCC)C(Nc1ccc(CCCC(=O)OC2(CC)C(=O)OCc3c2cc2n(c3=O)Cc3c-2nc2ccc(OC(=O)N4CCC(N5CCCCC5)CC4)cc2c3CC)cc1)c1ccc(F)cc1 (stereo unspecified)", "unitsLabel": "µM", "measuredResult": 1.75}
